What CC50 at 216 h was measured for each of the following?
Experiment: Cytotoxicity against human HepG2.2.15 cells assessed as cell death after 9 days by MTS assay
Assay type: cell-based, HepG2 2.2.15
Hi! Could you send only the number? It should be in µM, unit omitted.

Sure, the documented CC50 at 216 h for `COC(=O)Nc1nc2cc(C(=O)c3cccc(OC)c3)ccc2[nH]1` is 117

Sure, the documented CC50 at 216 h for `COC(=O)Nc1nc2nc(C(=O)c3cccc(OC)c3)ccc2[nH]1` is 78.1

Sure, the documented CC50 at 216 h for `Nc1ncnc2c1ncn2CCOCP(=O)(O)O` is 490

Sure, the documented CC50 at 216 h for `COC(=O)Nc1nc2cc(C(=O)c3ccc(OC)c(OC)c3)ccc2[nH]1` is 48.5

Sure, the documented CC50 at 216 h for `COC(=O)Nc1nc2nc(C(=O)c3ccc(OC)c(OC)c3)ccc2[nH]1` is 102

Sure, the documented CC50 at 216 h for `COC(=O)Nc1nc2cc(C(=O)c3cccc(F)c3)ccc2[nH]1` is 21.2

Sure, the documented CC50 at 216 h for `COC(=O)Nc1nc2cc(C(=O)c3ccc(O)c(OC)c3)ccc2[nH]1` is 105

Sure, the documented CC50 at 216 h for `COC(=O)Nc1nc2nc(C(=O)c3ccc(O)c(OC)c3)ccc2[nH]1` is 197

---

Assay: Selectivity index, ratio of CC50 for human HepG2.2.15 cells to IC50 for decrease in hepatitis B viral HBeAg secretion in human HepG2.2.15 cells
Assay type: functional
Please assign -1 whenever Selectivity Index is at or above 0.2, and 1 whenever it is below.

A record lists `COC(=O)Nc1nc2nc(C(=O)c3ccc(OC)c(OC)c3)ccc2[nH]1` . Is its Selectivity Index below 0.2?
-1

A record lists `COC(=O)Nc1nc2cc(C(=O)c3ccc(OC)c(OC)c3)ccc2[nH]1` . Is its Selectivity Index below 0.2?
1

A record lists `COC(=O)Nc1nc2cc(C(=O)c3cccc(OC)c3)ccc2[nH]1` . Is its Selectivity Index below 0.2?
-1

A record lists `COC(=O)Nc1nc2cc(C(=O)c3ccc(O)c(OC)c3)ccc2[nH]1` . Is its Selectivity Index below 0.2?
-1

A record lists COC(=O)Nc1nc2cc(C(=O)c3ccc(F)cc3)ccc2[nH]1 [FLUBENDAZOLE] . Is its Selectivity Index below 0.2?
-1

A record lists `COC(=O)Nc1nc2nc(C(=O)c3ccc(O)c(OC)c3)ccc2[nH]1` . Is its Selectivity Index below 0.2?
-1

A record lists `COC(=O)Nc1nc2nc(C(=O)c3cccc(OC)c3)ccc2[nH]1` . Is its Selectivity Index below 0.2?
-1

A record lists Nc1ncnc2c1ncn2CCOCP(=O)(O)O [ADEFOVIR] . Is its Selectivity Index below 0.2?
-1

A record lists `COC(=O)Nc1nc2cc(C(=O)c3cccc(F)c3)ccc2[nH]1` . Is its Selectivity Index below 0.2?
1

---

Experiment: Cytotoxicity against human HepG2.2.15 cells assessed as cell death after 9 days by MTS assay
Type: cell-based, HepG2 2.2.15
MEASURED ENDPOINT: CC50 at 216 h

Sure, the documented CC50 at 216 h for `COC(=O)Nc1nc2cc(C(=O)c3ccco3)ccc2[nH]1` is > 1000 µM

Sure, the documented CC50 at 216 h for `COC(=O)Nc1nc2cc(C(=O)c3ccccn3)ccc2[nH]1` is > 1000 µM

Sure, the documented CC50 at 216 h for `COC(=O)Nc1nc2ccc(C(=O)c3ccccc3)cc2[nH]1` is > 1000 µM
